# TEST_SYSTEM: AgOrco+AgOR65 (Anopheles gambiae)
# Construct: expressed in transfected cells
# Sequence (Q7QCC7 whole entry): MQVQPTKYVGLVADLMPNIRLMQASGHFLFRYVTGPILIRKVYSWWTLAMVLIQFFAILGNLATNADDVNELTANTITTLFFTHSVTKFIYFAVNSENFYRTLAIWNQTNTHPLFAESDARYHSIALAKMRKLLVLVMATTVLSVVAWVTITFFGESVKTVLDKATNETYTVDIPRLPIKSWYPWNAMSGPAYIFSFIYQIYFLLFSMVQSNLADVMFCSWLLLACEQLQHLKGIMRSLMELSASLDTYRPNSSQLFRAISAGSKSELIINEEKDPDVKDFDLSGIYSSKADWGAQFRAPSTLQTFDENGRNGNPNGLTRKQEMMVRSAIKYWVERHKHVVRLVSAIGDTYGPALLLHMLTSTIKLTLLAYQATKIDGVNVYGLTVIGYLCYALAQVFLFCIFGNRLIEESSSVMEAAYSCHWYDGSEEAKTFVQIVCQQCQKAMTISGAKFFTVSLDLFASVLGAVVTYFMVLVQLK
# ASSAY_COMMENT: Ca2+ imaging, HEK cells expressing AgOrco+AgOR65
# Assay type: cell-based
# EXPERIMENTAL_CONTEXT: Orco + 65; read-out: Orco + 65 Agonist EC50
MEASURED_ENDPOINT: EC50 (µM)
One number for each entry, in µM.

// worked examples, EC50 included
So what's the measured EC50 for this one? CCn1c(SCC(=O)Nc2ccc(C)cc2)nnc1-c1cccnc1 [drawing 372] 335

So what's the measured EC50 for this one? CCc1ccc(NC(=O)CSc2nnc(-c3cccnc3)n2CC)cc1 [drawing 373] 47

Please go through the list and note EC50 for each molecule.
1. CCn1c(SCC(=O)Nc2ccc(C(C)C)cc2)nnc1-c1cccnc1 [drawing 381]
2. CCn1c(SCC(=O)Nc2ccc(C(C)C)cc2)nnc1-c1ccncc1

1. 9.6
2. 8.2
